- Target Under Test: Melatonin receptor type 1A (Homo sapiens)
- Protocol Summary: Displacement of 2-[125I]iodomelatonin from human recombinant MT1 receptor expressed in NIH3T3 cells
Metric Name: log10(Ki) (log10 of the value in nM)
Base-10 log of Ki, unit nM.

// lookup log10(Ki) for CCC(=O)NCC1(c2cn(C)c3ccc(OC)cc23)CCC1 1.53

# log10(Ki) lookup, item COc1ccc2[nH]cc(C3(CNC(C)=O)CCC3)c2c1 0.91

---

- Target Under Test: Melatonin receptor type 1B (Homo sapiens)
- Sequence (P49286 whole entry): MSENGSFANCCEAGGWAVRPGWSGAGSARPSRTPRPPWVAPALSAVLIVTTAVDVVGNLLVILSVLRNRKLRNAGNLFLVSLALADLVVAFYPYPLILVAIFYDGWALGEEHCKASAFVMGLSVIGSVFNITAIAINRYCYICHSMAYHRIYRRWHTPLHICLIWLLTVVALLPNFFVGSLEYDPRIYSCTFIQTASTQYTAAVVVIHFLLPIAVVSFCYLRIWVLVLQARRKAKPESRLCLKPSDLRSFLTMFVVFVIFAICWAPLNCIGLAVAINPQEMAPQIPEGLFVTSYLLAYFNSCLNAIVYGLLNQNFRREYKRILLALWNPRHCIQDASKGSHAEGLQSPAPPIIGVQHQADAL
- Protocol Summary: Displacement of 2-[125I]iodomelatonin from human recombinant MT2 receptor expressed in NIH3T3 cells
Grouping by measured Ki is done with the following cut points: one: < 0.7 nM; two: ≥ 0.7 nM and < 70 nM; three: ≥ 70 nM

Into which category would you place COc1ccc2c(c1)c(C(C)CNC(C)=O)cn2C (stereo in doubt; (-)6a) ? one

Category lookup for the compound CC(=O)NCC1(c2cn(C)c3ccccc23)CCC1 three

Field: class (Ki) — entry: CCCC(=O)NCC1(c2cn(C)c3ccc(OC)cc23)CC1 two

New cases:
Which class is correct for the following compound? COc1ccc2c(c1)c(C1(CNC(=O)C3CCC3)CCC1)cn2C three

The entry to classify is COc1ccc2[nH]cc(C3(CNC(=O)C4CC4)CCC3)c2c1 ; which class holds it? two

Exam item: assign COc1ccc2c(c1)c(C(C)CNC(C)=O)cn2C (single isomer, unassigned; (+)) to the correct category. one

Record CCCC(=O)NCC1(c2cn(C)c3ccccc23)CCC1 — which class? three

Hi there! Could you help me figure out the category for COc1ccc2c(c1)c(C(C)CNC(C)=O)cn2C (stereo in doubt; 6a) please? one

Note: place this compound into its band. Item: COc1ccc2[nH]cc(C(C)CNC(C)=O)c2c1 (stereo unspecified) two

Kindly state the category for this compound: CCCC(=O)NCC(C)(C)c1cn(C)c2ccc(OC)cc12 two

---

- Target Under Test: Melatonin receptor type 1A (Homo sapiens, UniProt P48039)
- Sequence (P48039 whole entry): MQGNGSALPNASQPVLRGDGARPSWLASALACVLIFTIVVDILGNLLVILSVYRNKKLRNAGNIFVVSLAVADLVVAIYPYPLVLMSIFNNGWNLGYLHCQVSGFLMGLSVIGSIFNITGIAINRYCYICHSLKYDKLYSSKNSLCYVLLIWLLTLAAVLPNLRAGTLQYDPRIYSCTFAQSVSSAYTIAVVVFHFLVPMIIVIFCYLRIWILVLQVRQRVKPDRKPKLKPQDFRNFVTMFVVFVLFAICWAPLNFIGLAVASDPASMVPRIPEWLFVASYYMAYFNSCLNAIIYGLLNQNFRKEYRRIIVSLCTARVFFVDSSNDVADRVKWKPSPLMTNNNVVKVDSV
- Protocol Summary: Displacement of 2-[125I]iodomelatonin from human recombinant MT1 receptor expressed in NIH3T3 cells
Listed here are compounds together with their documented log10(Ki).
All values: log10 Ki [nM].

Tell me the measured log10(Ki) of CCC(=O)NCC1(c2cn(C)c3ccc(OC)cc23)CCCC1 , please. 2.48

Next:
Could you share which log10(Ki) value was measured for CCC(=O)NCC(C)(C)c1cn(C)c2ccc(OC)cc12 ? 0.78

What does the data say about its log10(Ki)? Entry: COc1ccc2c(c1)c(C1(CNC(=O)C3CCC3)CCC1)cn2C 2.85

Requested field: log10(Ki). Item: COc1ccc2[nH]cc(C(C)CNC(C)=O)c2c1 (configuration not stated) 0.22

Bench note: what log10(Ki) did Cn1cc(C2(CNC(=O)C3CC3)CCC2)c2ccccc21 show? 2.79

Field request: log10(Ki) | item: COc1ccc2[nH]cc(C(C)(C)CNC(C)=O)c2c1 0.05

Any idea what its log10(Ki) is? The compound is COc1ccc2c(c1)c(C1(CNC(=O)C3CCC3)CCCC1)cn2C 2.68

Look at this compound and give its reported log10(Ki). COc1ccc2c(c1)c(C1(CNC(=O)C3CC3)CCCC1)cn2C 2.67
